Assign TGI to each entry below.
- Test system: MDA-MB-435
- Assay method text: NCI tumour cell line growth inhibition, 48 h
Give the value, in units of µM, as a plain number.

// map Clc1ccc2c(c1)N(CCCN1CCCC13CCCCC3)c1ccccc1S2 to recorded TGI (system: MDA-MB-435)
27.4

Any idea what TGI came out for CN(CCCCCl)P(=O)(OCc1ccc([N+](=O)[O-])o1)OCC1OC(n2ccc(N)nc2=O)C(O)C1O (stereo unspecified) on MDA-MB-435?
8.21

Recall the recorded TGI for OCc1ccc(N(Cc2ccc(F)cc2)Cc2ccc(F)cc2)cc1Cl with MDA-MB-435 and state it.
22.4

// lookup TGI | system=MDA-MB-435 | key= Clc1ccc2c(NCCCCCCNc3ccnc4cc(Cl)ccc34)ccnc2c1
12.5

# returns recorded TGI (system: MDA-MB-435) for COC1(CC[C@@H](C)COC2OC(CO)C(O)C(O)C2O)OC2C[C@H]3[C@@H]4CC[C@H]5C[C@@H](OC6OC(CO)C(OC7OC(CO)C(O)C(O)C7O)C(O)C6OC6OC(C)C(O)C(O)C6O)[C@H](O)C[C@]5(C)[C@H]4CC[C@]3(C)C2[C@@H]1C (stereo partly specified)
3.5

Lab note: need TGI with MDA-MB-435 for entry CCC[CH2][Sn-]([CH2]CCC)([CH2]CCC)[O]C(=O)C(C)C , please look it up.
0.289

Record lookup: for MDA-MB-435, what TGI belongs to COc1nc(Cl)nc(N[C@H](C)c2c3ccccc3cc3ccccc23)n1 ?
15.1

Lookup: TGI / MDA-MB-435 / Cn1c(I)c(C#C[Si](C)(C)C)c(=O)n(C(=O)c2ccccc2)c1=O
13.4

Which measured TGI belongs to O=C1[C@@H]2[C@@H](CN3CN(c4ccccc4)N=C(c4ccccc4)[C@@]23c2ccccc2)C(=O)N1c1ccccc1 , tested on MDA-MB-435?
23.2

----------
- System: NCI-H522 lung
- Assay method text: NCI tumour cell line growth inhibition, 48 h
Provide the reported log10(TGI) of each item.
Scale: decimal log of TGI, TGI in µM.

Given O=C1CC23CCCCCCCCCCC2(C1)CC(=O)C3 (configuration not stated) , state its recorded log10(TGI).
1.65

Find the recorded log10(TGI) belonging to Cn1c(COC(=O)NCCc2ccccn2)nc2c(N3CCOCC3)nc(Cl)nc21 and report it.
0.50

Given COc1cc(/C=N/NC(=O)c2cnn3c2NC(c2ccccc2)C3)ccc1OC1CCCC1 (configuration not stated) , state its recorded log10(TGI).
0.82

Could you share which log10(TGI) value was measured for CN1CCN(C(=O)c2cn(Cc3cncn3Cc3ccc4c(c3)OCO4)cc2-c2cccc3ccccc23)CC1 ?
1.92

Consider the molecule shown here: Cc1cccc(C2NC(=O)c3ccccc3N2)c1 (configuration not stated) What is its recorded log10(TGI)?
1.66

What value of log10(TGI) has been recorded for this entry: CCOc1ccc2nc(NC(=O)C(=O)C(C(=O)c3ccccc3F)C3OC(=O)c4ccccc43)sc2c1 (configuration not stated)
1.44

Recorded log10(TGI) for CCCCCCCC/C=C/CCCCCCCC1=NC(C)(C)CN1C(C)(C)CO , please?
0.57

Sample COc1ccccc1NC(=O)C(=O)C(C(=O)c1ccccc1F)C1OC(=O)c2ccccc21 (configuration not stated) — what was its log10(TGI)?
1.55

Suppose we examine the molecule O=C(O)CSC(CC(=O)c1ccc(Cl)cc1)c1ccc(Cl)cc1 (configuration not stated) ; what log10(TGI) value has been reported?
1.66

I would be grateful if you could share the reported log10(TGI) for O=C1[C@@H]2[C@@H](CN3CN(c4ccccc4)N=C(c4ccccc4)[C@@]23c2ccccc2)C(=O)N1c1ccccc1 .
0.05

Sample CC1=C(C)C(=O)C(C2=CC(=O)c3ccccc3C2=O)=C(C2=CC(=O)c3ccccc3C2=O)C1=O — what was its log10(TGI)?
1.24

Entry under review: COc1cc2c(cc1C)NC(=O)/C2=C/c1ccnc2ccccc12 . Reported log10(TGI)?
1.62

Which log10(TGI) value is on record for CC1=NN(c2cccc(Cl)c2)C(=O)/C1=C\c1cn(CC(O)CN2CCCCC2)c2ccccc12 (configuration not stated) ?
1.42

Return reported log10(TGI); argument: CC(C)(CO[C@H]1C[C@H]2CC[C@@]1(C)C2(C)C)[N+](=O)[O-]
1.61

Data request, read-out log10(TGI), for NC(N)=N/N=C\c1ccc(OCc2ccccc2)cc1
0.50

# input molecule: COC1(OC)C2(Cl)C3=CCCC=C3C1(Cl)C(Cl)=C2Cl ; wanted: its log10(TGI)
1.52

What value of log10(TGI) has been reported for the following molecule? C=C1CCC[C@@H](C)C(O)[C@@H]2OC(=O)C(=C)[C@@H]2C[C@@H](OC(C)=O)[C@@]2(C)CC[C@@H]1O2 (some centres not stated)
0.69

Fill in: log10(TGI) of CCCCCCCC(=O)OCC/C=C/C1OC1C1OC(=O)/C=C\C=C\C(=O)N(C(C)=O)C(=O)/C=C(/C)CCC2OC2C1OC(=O)NC(C)=O (configuration not stated) is ___
0.91

# get_value(readout='log10(TGI)', item= C/C(=N\Nc1nc2ccccc2s1)c1ccncn1 )
0.31

Fill blank: measured log10(TGI) of the molecule NC(=O)[C@H](Cc1ccc(O)cc1)Nc1c(O)c2c(c(O)c1Cl)C(=O)C=CC2=O is ____.
0.60

Requested read-out: log10(TGI). Entry: CC(C)CCCC(C)[C@H]1CCC(C2C[C@@H](O)[C@@H]3CC(O)[C@@H](O)C[C@]3(CO)C2=O)[C@]1(C)CCO (some centres not stated)
1.87

I have this molecule here, CCCCNC(c1ccc(Cl)cc1)C(O)c1ccc(Cl)cc1 (configuration not stated) , and I need its recorded log10(TGI).
0.55

----------
Can you tell me TGI for the items I'm about to list?
- Tested on: UACC-62 melanoma
- Assay method text: NCI tumour cell line growth inhibition, 48 h

Can you look up the measured TGI of COc1ccc(-c2nc3ccccc3s2)cc1OC for me?
> 100 µM

Value lookup for TGI; key = Cc1ccccc1NC(=O)O/N=C(\Cl)C(C)C
28.3 µM

Entry under review: N#Cc1ccccc1NC(=O)C(=O)C(C(=O)c1ccccc1F)C1OC(=O)c2ccccc21 (stereo not given) . Reported TGI?
> 100 µM

Look up TGI: Cn1c(I)c(C#C[Si](C)(C)C)c(=O)n(C(=O)c2ccccc2)c1=O
17 µM

// returns reported TGI for input CCC1(c2ccc(N3C(=O)c4cccc5cc([N+](=O)[O-])cc(c45)C3=O)cc2)CCC(=O)NC1=O (stereo not given)
> 100 µM

----------
- Tested on: HOP-92 NSCLC
- Assay method text: NCI tumour cell line growth inhibition, 48 h
Readout name: GI50

What value of GI50 on HOP-92 NSCLC does C/C(=N/NC(=S)Nc1ccccc1)c1nc2ccc(Cl)cc2[nH]1 have?
0.585 µM

Query the reported GI50 for HOP-92 NSCLC; item: CC1(C)CC(C)(C)c2cc(NC(=S)Nc3ccc([N+](=O)[O-])cc3)ccc2S1
19.1 µM

Which measured GI50 belongs to O=c1c(Cc2ccc3c(c2)OCO3)nnc2sc(-c3cc(F)c(Cl)cc3Cl)nn12 , tested on HOP-92 NSCLC?
23 µM

Give the reported GI50 for OCc1ccc(N(Cc2ccc(F)cc2)Cc2ccc(F)cc2)cc1Cl (system: HOP-92 NSCLC).
2.21 µM

// lookup GI50 | system=HOP-92 NSCLC | key= Cc1ccc(/C(=N/Nc2ccc([N+](=O)[O-])cc2)Sc2cc(Cl)c(C)cc2S(N)(=O)=O)cc1
1.45 µM

Lab note: need GI50 with HOP-92 NSCLC for entry CCCC(=O)O[C@]1(C)CC[C@@H]2[C@H]3[C@@H]1[C@@H]1C[C@@](C)(O)[C@H](OC)CC[C@](C)(OC(=O)[C@@H]2C)[C@H]3O1 , please look it up.
17.6 µM

Find the measured GI50: item Nc1cc2c3c(cccc3c1)C(=O)N(CCN1CCCC1)C2=O , target or system HOP-92 NSCLC.
2.94 µM

Query the reported GI50 for HOP-92 NSCLC; item: CCCCCCCC(=O)OCC/C=C/C1OC1C1OC(=O)/C=C\C=C\C(=O)N(C(C)=O)C(=O)/C=C(/C)CCC2OC2C1OC(=O)NC(C)=O (stereo not given)
0.823 µM

// lookup GI50 | system=HOP-92 NSCLC | key= Cn1c(I)c(C#C[Si](C)(C)C)c(=O)n(C(=O)c2ccccc2)c1=O
2.6 µM

Request: GI50, test system HOP-92 NSCLC, entry CC(C)C[C@@H](N)[C@@H](O)C(=O)N[C@H](C(=O)N[C@H](C(=O)N[C@@H](CC(=O)O)C(=O)O)C(C)C)C(C)C
10.3 µM

What measured GI50 is associated with O=C1NC(=NCCc2ccc(Cl)cc2)S/C1=C\c1ccc2ncccc2c1 on HOP-92 NSCLC?
7.32 µM

Recall the recorded GI50 for COc1ccc(-c2ccc(C3CC(c4ccccc4)=NN3)o2)c([N+](=O)[O-])c1 (stereo not given) with HOP-92 NSCLC and state it.
24.8 µM

Give the reported GI50 for COc1ccc2c(c1)C(=O)c1c-2c(OCCCN(C)C)nc2cc(Br)ccc12 (system: HOP-92 NSCLC).
6.12 µM

Requested read-out GI50, target or system HOP-92 NSCLC, entry CC(C)(C)C[C@H]1N[C@@H](C(=O)NC2CCC(O)CC2)[C@H](c2cccc(Cl)c2F)[C@@]12C(=O)Nc1cc(Cl)ccc12 (stereo not given in full)
3.28 µM

Param readout = GI50; param system = HOP-92 NSCLC; param query = CCN(CC)C(=S)SSC(C)C ; response: value
15.2 µM
